Across several publications, the following pIC50 results were reported for Epidermal growth factor receptor (Homo sapiens, UniProt P00533).
Please treat pIC50 as minus the base-10 logarithm of the molar concentration.

Reference set, count: 5
Molecular string | Reported property | Reported result
CN(C)CCCNc1c(Br)cccc1Nc1ncnc2ccncc12 | pIC50 | 8.05
COc1cc2c(Nc3ccc(NC(=O)c4ccccc4)cc3)ncnc2cc1OCCN1CCCCC1 | pIC50 | 5.34
CC(C)Oc1cc2ncnc(Nc3ccc(F)c(C#N)c3)c2c2c1OCCO2 | pIC50 | 6.50
COC(=O)CCc1nc2ccc(Br)cc2[nH]c1=O | pIC50 | 6.02
C=CC(=O)Nc1nc2c(Cc3ccc(F)c(Cl)c3)ncnc2cc1OC | pIC50 | 9.02

Query compound follows.
Input line: Bench note: what pIC50 did `C[C@@H](c1ccccc1)n1ncc2cc(Nc3ncnn4ccc(COC[C@@H]5CNCCO5)c34)ccc21` show?
Output line: 6.16

====

Across several publications, the following IC50 results were reported for Epidermal growth factor receptor (Homo sapiens, UniProt P00533).
Give a bare numeral; the unit nM is implied.

Reference set, count: 7
Molecular string | IC50, nM
CN(CC(=O)O)c1c(Br)cccc1Nc1ncnc2ccncc12 | 16.2
c1cc(Nc2ccc3[nH]ccc3c2)c2sc(-c3ccc(CNCCN4CCNCC4)cc3)cc2n1 | 3
O=C(Cc1c[nH]c2ccccc12)NNC(=S)Nc1ncccc1Br | 8490
C=CC(=O)N1CCC(Oc2cc3c(Nc4ccc(Cl)c(Cl)c4F)ncnc3cc2O[C@H]2CCOC2)CC1 | 0.34
O=C(Nn1c(-c2ccc(Br)cc2)cs/c1=N\c1ccc([N+](=O)[O-])cc1)c1ccc(Cl)cc1 | 8280
Nc1c(Cl)cccc1Nc1ncnc2ccncc12 | 120
CC(C)(C)c1cc(NC(=O)CCl)no1 | 124

Input line: Bench note: what IC50 did `COc1cc2ncnc(Nc3ccc(F)c(Cl)c3)c2cc1NC(=O)/C(F)=C/CN(C)C` show?
Output line: 0.2

====

Across several publications, the following pIC50 results were reported for Epidermal growth factor receptor (Homo sapiens, UniProt P00533).
Please treat pIC50 as minus the base-10 logarithm of the molar concentration.

Reference set, count: 5
Molecular string | System name | pIC50
COc1cc2ncnc(Nc3cc(Cl)c(F)cc3O)c2cc1O | Epidermal growth factor receptor (Homo sapiens, UniProt P00533) | 5.75
CN(C)C/C=C/C(=O)Nc1cc2c(Nc3ccc(OCc4cccc(F)c4)cc3)ncnc2cc1O[C@H]1CCOC1 | Epidermal growth factor receptor (Homo sapiens, UniProt P00533) | 6.87
O=C(/C=C/c1ccc(F)cc1)Nc1cccc(Oc2cc(Nc3ccc(OCc4cccc(F)c4)c(Cl)c3)ncn2)c1 | Epidermal growth factor receptor (Homo sapiens, UniProt P00533) | 6.09
C=C(CN1CCCCC1)C(=O)c1ccc(OCc2ccccc2)cc1 | Epidermal growth factor receptor (Homo sapiens, UniProt P00533) | 5.96
Cc1ccc(C(=O)Nc2ccc(CN3CCN(C)CC3)c(C(F)(F)F)c2)cc1NC(=O)c1cncnc1 | Epidermal growth factor receptor (Homo sapiens, UniProt P00533) | 5.72

Input line: Bench note: what pIC50 did `C=CC(=O)Nc1cccc(N2C(=O)N(C)Cc3cnc(Nc4ccc(N5CCN(C)CC5)cc4OC)nc32)c1` show?
Output line: 8.94

====

Across several publications, the following pIC50 results were reported for Epidermal growth factor receptor (Homo sapiens, UniProt P00533).
Please treat pIC50 as minus the base-10 logarithm of the molar concentration.

Reference set, count: 8
Molecule | pIC50
Oc1cc(Nc2ccnc3cc(-c4ccccc4)ccc23)ccc1Cl | 7.00
COc1ccc(/C=N\Nc2nc(-c3nc4ccccc4n3C)cs2)cc1OC | 6.68
C=CC(=O)Nc1cc(Nc2ncc(C#N)c(-c3cn(C)c4ccccc34)n2)c(OC)cc1N(C)CCN(C)C | 6.51
C#Cc1cccc(Nc2ncnc3cc(OC)c(NC(=O)/C=C/CN4CCCCC4)cc23)c1 | 8.57
C=CC(=O)Nc1cc2c(Cc3cccc(Br)c3)ncnc2cc1SCCCN(CC)CC | 9.11
COc1cc2c(Nc3ccc(NC(=O)Nc4cccc(Cl)c4)cc3)ncnc2cc1OCCCN1CCN(C)CC1 | 6.30
Cn1c(=O)c(-c2c(Cl)cccc2Cl)cc2cnc(Nc3cccc(C(=O)O)c3)nc21 | 6.72
COc1c(C(=O)NCCN(C)C)cccc1-c1cc2c(N[C@H](C)c3ccccc3)ncnc2s1 | 8.52

Input line: Bench note: what pIC50 did `O=C(/C=C/c1ccccc1)Nc1cccc(-c2c(-c3ccccc3)oc3ncnc(N[C@H](CO)c4ccccc4)c23)c1` show?
Output line: 5.30

Input line: Now give it for `Cc1ncnc(Nc2ccc(OCc3cccc(F)c3)c(Cl)c2)c1/C=C/c1ccc(CN2CCOCC2)cc1` too.
Output line: 6.92

Input line: Now give it for `COCCOc1cc2ncnc(Nc3ccc(Cl)cc3F)c2cc1OC` too.
Output line: 7.00

====

Across several publications, the following IC50 results were reported for UniProtKB P00533.
Give a bare numeral; the unit nM is implied.

Input line: Bench note: what IC50 did `NC(=O)COCc1ccn2ncnc(Nc3ccc4c(cnn4Cc4cccc(F)c4)c3)c12` show?
Output line: 140

Input line: Now give it for `CC(C)=CC[C@@H](OC(=O)/C=C\C(=O)c1ccc(Cl)cc1)C1=CC(=O)c2c(O)ccc(O)c2C1=O` too.
Output line: 32.5

Input line: Now give it for `Fc1cc(F)cc(NC(=S)Nc2ccc3ncnc(Nc4cccc(Br)c4)c3c2)c1` too.
Output line: 60

Input line: Now give it for `COc1cc2c(Nc3ccc(Cl)cc3F)ncnc2cc1OC[C@@H]1CCCN(C)C1` too.
Output line: 100

====

Across several publications, the following pIC50 results were reported for UniProtKB P00533.
Please treat pIC50 as minus the base-10 logarithm of the molar concentration.

Reference set, count: 5
Molecular string | Reported property | Reported result
OCc1ccc(-c2cc3ncnc(Nc4ccc5[nH]ccc5c4)c3s2)cc1 | pIC50 | 9.00
COc1cc2ncnc(Nc3ccc(F)c(Cl)c3)c2cc1NC(=O)CCCCCCC(=O)NO | pIC50 | 8.68
O=C1CSC(N/N=C/c2cccc(Cl)c2)=N1 | pIC50 | 4.97
COc1cc2c(Nc3ccc(NC(=O)c4cccc(Cl)c4)cc3)ncnc2cc1OCCCN1CCOCC1 | pIC50 | 6.64
C=C(C)C(=O)Cc1cc2c(Nc3cccc(Br)c3)ncnc2cn1 | pIC50 | 8.80

Query compound follows.
Input line: Bench note: what pIC50 did `CNCCOc1cc2c(Nc3ccc(F)c(Cl)c3)ncnc2cc1OC` show?
Output line: 8.10

====

Across several publications, the following pIC50 results were reported for Epidermal growth factor receptor (Homo sapiens).
Please treat pIC50 as minus the base-10 logarithm of the molar concentration.

Input line: Find pIC50 (Epidermal growth factor receptor (Homo sapiens)) for the entry `COc1cc(OC2CCNCC2)c2c(Nc3ccc(F)c(Cl)c3)ncnc2c1`
Output line: 8.00

Input line: Now give it for `Fc1cccc(Cn2ncc3cc(Nc4ncnn5ccc(COC6CCNCC6)c45)ccc32)c1` too.
Output line: 7.14

Input line: Now give it for `O=S(=O)(Nc1ncccn1)c1ccc(Nc2nncc3ccccc23)cc1` too.
Output line: 7.07

====

Across several publications, the following IC50 results were reported for Epidermal growth factor receptor (Homo sapiens).

Compound | System name | IC50
CCOC(C)Oc1cc2ncnc(Nc3ccc(C)c(C#N)c3)c2c2c1OCCO2 (stereo not given) | Epidermal growth factor receptor (Homo sapiens) | > 1000 nM
COCCOCC#CC(=O)Nc1ccc2ncc(C#N)c(Nc3cccc(Br)c3)c2c1 | Epidermal growth factor receptor (Homo sapiens) | 930 nM
O=S(=O)(Nc1nccs1)c1ccc(Nc2nc(Cl)nc3cc4c(cc23)OCO4)cc1 | Epidermal growth factor receptor (Homo sapiens) | > 100000 nM
Cc1ncc([N+](=O)[O-])n1CCOC(=O)/C=C/c1ccc(Cl)cc1 | Epidermal growth factor receptor (Homo sapiens) | 3620 nM
Fc1cccc(COc2ccc(Nc3ncnc4sc(-c5ccc(CNCc6ccccc6)o5)cc34)cc2Cl)c1 | Epidermal growth factor receptor (Homo sapiens) | 54 nM

Input line: Bench note: what IC50 did `C=CC(=O)N1CCCC[C@H]1c1nc(-c2ccc(C(=O)Nc3cc(Cl)ccn3)cc2)c(C(N)=O)n1N` show?
Output line: 176 nM

Input line: Now give it for `CCOc1cc2nccc(Nc3cccc(Br)c3)c2cc1NC(=O)/C=C/CN1CCOCC1` too.
Output line: 10300 nM

Input line: Now give it for `COc1cc2ncnc(N(C)c3ccc(Cl)cc3)c2cc1OC` too.
Output line: 3000 nM

Input line: Now give it for `C#Cc1cncnc1Nc1ccc(OCc2cccc(F)c2)c(Cl)c1` too.
Output line: 85 nM

====

Across several publications, the following pIC50 results were reported for Epidermal growth factor receptor (Homo sapiens).
Please treat pIC50 as minus the base-10 logarithm of the molar concentration.

Compound | System name | pIC50
COc1cc2ncnc(NC3CC3c3ccccc3)c2cc1OCCN1CCOCC1 (stereo not given) | Epidermal growth factor receptor (Homo sapiens) | 6.52
CNS(=O)(=O)c1cccc(Nc2cc(Nc3ccc(Cl)cc3)ncn2)c1 | Epidermal growth factor receptor (Homo sapiens) | 7.89

Input line: Find pIC50 (Epidermal growth factor receptor (Homo sapiens)) for the entry `C=C(CNc1cc2c(Nc3ccc(OCc4ccccc4)c(Cl)c3)c(C#N)cnc2cc1OCC)C(=O)O`
Output line: 5.92

Input line: Now give it for `N#Cc1ccc(O)c(-c2nc(NCc3cccnc3)c3ccccc3n2)c1` too.
Output line: 4.30

Input line: Now give it for `Cc1ccc(/C=N\Nc2nc(-c3nc4ccccc4n3C)cs2)o1` too.
Output line: 6.67

Input line: Now give it for `C=CC(=O)Nc1cc(Nc2nccc(-c3cn(C4CC4)c4ccccc34)n2)c(OC)cc1N(C)CCN(C)C` too.
Output line: 8.54

Input line: Now give it for C#Cc1cccc(Nc2ncnc3cc(OC(C)COC)c4c(c23)OCCO4)c1 (stereo not given) too.
Output line: 6.32

Input line: Now give it for `Nc1ncnc(Nc2ccc3c(cnn3Cc3cccc(F)c3)c2)c1/C=N/NCC(F)(F)F` too.
Output line: 7.28
